Parameter: inhibition. Scope: all listed entries.
tested.target: Neuropeptide Y receptor type 2 (Homo sapiens) (UniProt P49146)
Sequence (P49146 whole entry, looked up): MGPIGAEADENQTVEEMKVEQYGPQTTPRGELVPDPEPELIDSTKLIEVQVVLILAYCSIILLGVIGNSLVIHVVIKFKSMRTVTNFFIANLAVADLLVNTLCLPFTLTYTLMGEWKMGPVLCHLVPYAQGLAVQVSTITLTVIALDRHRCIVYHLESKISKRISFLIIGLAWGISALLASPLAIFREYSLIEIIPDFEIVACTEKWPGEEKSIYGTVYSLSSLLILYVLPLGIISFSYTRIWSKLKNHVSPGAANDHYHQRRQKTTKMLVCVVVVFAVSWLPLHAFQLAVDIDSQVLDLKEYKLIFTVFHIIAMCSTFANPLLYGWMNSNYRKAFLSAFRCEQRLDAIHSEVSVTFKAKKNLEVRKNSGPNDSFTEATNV
assay.comment: blockers of human neuropeptide Y Y2 receptor – cell-based, primary screen (AID 793);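 note: 0% = vehicle with agonist challenge and 100% = reference antagonist with challenge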
assay.setup: NPY-Y2 expressing cells, antagonist mode; at 2.7 µM; stronger effect = higher value
In all, about 140,000 compounds went through this assay and about 1,400 (1%) were called active. What follows is part of a selection rich in actives, with near analogues and random picks from the rest.

- molecule: "COc1cc2c3c(c1)/C(=C1/SC(=S)NC1=O)C(=O)N3C(C)(C)C=C2C"
  tested.target: "Neuropeptide Y receptor type 2 (Homo sapiens) (UniProt P49146)"
  inhibition [%]: -1.35
- molecule: "O=C(Nc1c2c(nn1-c1ccc(F)cc1)CS(=O)C2)C12CC3CC(CC(C3)C1)C2 (stereo not given)"
  tested.target: "Neuropeptide Y receptor type 2 (Homo sapiens) (UniProt P49146)"
  inhibition [%]: 2.38
- molecule: "O=C(NCCCO)/C(=C\\C=C\\c1ccccc1)NC(=O)c1ccccc1Cl"
  tested.target: "Neuropeptide Y receptor type 2 (Homo sapiens) (UniProt P49146)"
  inhibition [%]: 1.12
- molecule: "Cc1ccc(-n2nc3c(c2NC(=O)CCC2CCCCC2)CS(=O)C3)cc1 (stereo not given)"
  tested.target: "Neuropeptide Y receptor type 2 (Homo sapiens) (UniProt P49146)"
  inhibition [%]: 6.05
- molecule: "Cc1ccc(C)c2[nH]c(=O)c(CCNC(=O)c3cccs3)cc12"
  tested.target: "Neuropeptide Y receptor type 2 (Homo sapiens) (UniProt P49146)"
  inhibition [%]: 2.37
